# System: Chenopodium
# test summary: Pre-emergence test/greenhouse
# Assay type: in vivo
# measurement context: 60 g of ai./ha, after three weeks
Listing: Chenopodium, % damage of selected compounds
# do not omit the unit; it follows the number

Use the examples below as a reference point.
1) CCOc1cccc(C)c1S(=O)(=O)NC(=O)Nc1nc(C)nc(OC)n1 [Example 32] : 100%
2) CCOc1cccc(C)c1S(=O)(=O)NC(=O)Nc1nc(C)cc(OC)n1 [Example 27] : 100%
3) COc1cccc(C(F)(F)F)c1S(=O)(=O)NC(=O)Nc1nc(C)cc(C)n1 [Example 1] : 100%
4) CCCOc1cccc(C)c1S(=O)(=O)NC(=O)Nc1nc(OC)nc(OC)n1 [Example 48] : 100%
5) COc1nc(C)nc(NC(=O)NS(=O)(=O)c2c(C)cccc2OC2CCCC2)n1 [Example 56] : 100%
6) COc1nc(C)nc(NC(=O)NS(=O)(=O)c2c(OC)cccc2C(F)(F)F)n1 [Example 5] : 100%
7) CCOc1cccc(C)c1S(=O)(=O)NC(=O)Nc1nc(OC)nc(OC)n1 [Example 31] : 100%
8) COc1nc(NC(=O)NS(=O)(=O)c2c(OC)cccc2C(F)(F)F)nc(OC)n1 [Example 6] : 100%

Now examine the next entry.
Asked: Find Chenopodium, % damage (Chenopodium) for the entry CCOc1cccc(C(F)(F)F)c1S(=O)(=O)NC(=O)Nc1nc(C)nc(OC)n1 [Example 4]
Given back: 100%
